test: yeast display, Sf9 membrane polyspecificity reagent, FACS + sequencing; frameworks hold sequencing errors
Assay metric: polyreactivity (PSR sort gate)

* QVQLVESGGGLVQAGGSLRLSCAASGRISVFNAMGWYRQAPGKERELVATITDGGSTYYADSVKGRFTISRDNAKNTVYLQMNSLKPEDTAVYYCAKKQVTTDVSSETFVLEMDYWGQGTQVTVSS | low polyreactivity
* QVQHVESGGGLVQAGGSLRLSGAAYGRTFLYNAKGWNIQAPGKERELVAVISKRGGRTYYADSVKGRFTISRDNAKNTVYLQMKSLKPEDTAVYYCGAAYVTPPGPLRYNEYYWGQGSQVTVSS | high polyreactivity
* QVQLVESGGGLVQAGGSLRLSCAASGSIFTNAMGWYRQAPGKETELVAAISYSGGSTYYADSVKGRFTISRDNAKNTVYLQMNSLKREDTAVYYCAAEAWFDGIWGDYWGQGTQVTVSS | high polyreactivity
* QVQLVESGGGLVQAGGSLRLSCAASGSIFRWYAMGWYRQAPGKERELVAAITWSASRTYYADSVKGRFTISRDNAKNTVYLQMNSLKPEDTAVYYCAADHDGPYAGYDSWGQGTQVTVSS | low polyreactivity
* QVQLVESGGGLVQAGGSLRLSCADSGFIFTPYTMGWYRQAPGKERELVAAITDGSSTYYADSVKGRFTISRDNAKYTVYLQINSLKPEDTAVYYCNADGKPPYISWLYDYWGQGTQVTVSS | low polyreactivity
* QVQLVESGGGLVQAGGSLRLSCAASGIIFSGYVMGWYGQAPGKERELVAAISRSGGRTFYADSVKGRFTISRDNAMNTVYLQMNSLKPEDTAVYYCAKVPSYVRGHGYQYDHWGQGTQVTVSS | high polyreactivity
* QVQLVESGGGLVQAGGSLRLSCAASGSTFRIYAKGWYRQAPGKERELVAAITRGARTNYADSVKGRFTISRDNAKNTVYLQMNSLKPEDTAVYYCAADGWRWYQHNGFDYWVQGTQVTVSS | high polyreactivity
* QVQLVESGGGLVQAGGSLRLSCAASGFNFQGNAMGWYIQAPGNERELVAAISSDGSTYYADSVKGRFTISRDNAKNTVELQMYSLKPEDTAVYYCAAEWWYYYPGYIITSYDYWGQGTQVTVSS | low polyreactivity
* QVQIVESGGGLVQAGGSLRLSCAASGSTFLSNAMGWYRQAPGKERELVATISFSGATYADSVKGRFTIARDNAKNTVYLQMNSLKPEDTAVYYCNRATLNYSGKGDTAYDYWGQGTQVTVSS | low polyreactivity
* QVQLVESGGGLVQAGGSLRLSCAASGRIFATNAMGWYIQAPGKERELVAAISWDGGSTYYADSVKGRFTISRDNAKNTVYLQMNSLKPEDTAVYYCNKVLYYAYDYWGQGTQVTVSS | low polyreactivity
* QVQLVESGGGLVQAGGSLRLICAASGSIFSRNAMGWYRQAPGKERELVASISWSSDITNYADSGKGRFTISRDNAKNTVYLEMNSLKAEDTAVYYCNVDGLLGERFSWGYDYWRQGTQVTVSS | low polyreactivity

###

experiment: yeast display, Sf9 membrane polyspecificity reagent, FACS + sequencing; frameworks hold sequencing errors
Assay metric: polyreactivity (PSR sort gate)

* QVQLVESGGCLVQAGGSLRLSCAASGRTFRYYAMGWYRQAPGTERELVATITGSGGSTYYADSVKGRFTISRDNAKNTVYLQMTSLKPEDTAVYYCNARKVRYPYRWYDYWGQGTQVTVSS | high polyreactivity
* QVQLVESGGGLVQAGGSLRLSCAASGRIFTYNAMGWYRQAPGKEWELVAVISRRGGSTYYADSVKGRFTISRDNAKNSVYLQMNSLKPEDTAVYYCAADLPSYAYEFWGQGTQVTVSS | low polyreactivity
* QVQLVESGGGLVQAGGSLRLSCAASGSTFFEYAMGWYRKAPGKEREFVAGISWSGGITYYADSVKGRFTISRDNAKNTVYLQMNSLKPEDTAVYYCATAGGDWYGVDYWGQGTQVTVSS | low polyreactivity
* QVQLVESGGGLDQAGGSLRLSCAASGRTFGTYVMGWSRQAPGKERELVAAITGSGGSTYYADSVKGRFTISRDIAKNSVYLQMNSLKPEDTAVYYCSAKYRRPRYGFWGQGTQVTVSS | high polyreactivity
* QVQLVESGGGLVQAGCSLRLSCAPSGSTFKVNDMGWYRQAPGKERELVAAIDKSGGTTYYADSVKGRFTLSRDNAKNTVYYQMNSLKPEDTAVYYCAADVIYEMDYWGQGTQVTVSS | low polyreactivity
* QVQLVESGGGLVQAGGSLRLSCAASGRIFIDYAMAWYRQAPGKESELVATNTSSGGSTYYADSVKGRFTISRDNAKNTVYLLMNSLNPEDTAVYFCNKEGSYDYDYWGQGTQVTVSS | low polyreactivity
* QVQLQESGGGLVQAGGSLRQSCAASGNIFLGDTMGWYRPAPGKEREFVAGIARGGNPYYADSVKGRFTISRNNAKNTVYLQKNSLKPEDTAVHYCAVQRSHASDYNYWGQGTQVTVSS | low polyreactivity
* QVQLVESGGGLVQAGGSLRLSCAASGIIFRYYAMGWYRQAPGKERELVAAITSRGGSTYYADSVKGRFTISRDNAKNTVYLQMNSLKPEDTAVYYCATAYYYFSTSRADGEYWGQGTQVTVSS | high polyreactivity
* QVQLVESGGGLVQAGGSLRLSCAASGSIFGPSAMGWYIQAPGKERDLVAGITRSVGSTYYADSVKGRFTISRDNAKNTVYLQMNSLKPEDTADYYCNAKWLYSRWAGYDYWGQGTQVTVSS | low polyreactivity
* QVQLVESGGGLVQAGGSLRLSCAASGSTFFTYAMGWYRQAPGKERELVAGISYSGGSTYYADSVKGRFTISRDNAKNTVYVQMNSLKPEDTAVYYCNAYISYGDFDLEFYYWGQGTQVTVSS | low polyreactivity
* QVQLEESGVGLVQAGGSLRLSCAASGYTFDYYDMAWYRQAPGKERELVAAISCSGGRTYYADSVKGRFTISRDNAKNTVYLQMNSLKPEDTAVYYCNTRYGALGKGGMDYWGQGTQVTVSS | high polyreactivity

###

assay: yeast display, Sf9 membrane polyspecificity reagent, FACS + sequencing; frameworks hold sequencing errors
Assay metric: polyreactivity (PSR sort gate)

• QVQLVESGGGLVQAGGRLRLSCAASGSIFRRYAMGWYRQEPGKERELVAVITTDGSTYYADSVKGRFTISRDNAKNTVYLQMNSLKPEDTAVYYCAAEVYVIGDSGYDYWGQGTQVTVSS = low polyreactivity
• QVQLVESGGGLDQAGGSLRLSCAASGYTFFSNAMGWYRQAPGKERELVAAITFSGGSTYYADSVKGRFTISRDNAKNTVYLHMNSLKPEDTAVYYCATRYYYHYPRKHIYNYWGQGTQVTVSS = high polyreactivity
• QVQLVESGGGLVQAGGSLRLSCAASGSIFYSNAMGWYRQAPGKERELVAAITSSGGITRYADSVKGRFTISRDNAKNTVYLQMNSLKPEDTAVYYCAKDIRVYASDYWGQGTQVTVSS = low polyreactivity
• QVQLVESGGGLVQAGGSLRLSCAASGSTLGYNAMGWYRQATGKERELVAGISRNGGSTFYADSVKGRFTISRDYAKYTLYLQMNSLKPEDTAVYYCARYYTHSGGFRVRIYYYWGQATQVTVSS = low polyreactivity
• QVQLVESGGGLVQAGGSLRLSCAASGRTFRWYAMGWYRQAPGKERELVAAITSSSSTNYADSVKGRFTISRDNAKNTVYLQMNSLKPEDTAVYYCAKGWNWYDLGESGYWGQGTQVTVSS = low polyreactivity
• QVQLVESGGGLVQAGGSLRLSCAASGYIFPPYAMGWYRQAPGKERELVATITGIGGSTYYADSVKGRFTISRDNAKNTVYLQMNSLKPEDTAVYYCAARRDGYGTHYDYWGQGTQVTVSS = low polyreactivity
• QVQLVESGGGLVQAGGSLRLSCATSGRIFGTNAMGWYRQAPGKERELVADITSGGSTNYADSVKGRFTISRDNAKNTVYVQMNSLKPEDTAVYYCAADVIGDLRWYRDEYWGQGTQVTVSS = low polyreactivity
• QVQLVESGGGLVQAGGSLRLSCAAYGSIFRSYAMGWYRQAPGKERELVAAISSRYGSTYYADSVKGRFTISRDNAKNTVYLQMNSLKPEDTAVYYCGSQHRHSYGYWGQGTQVTVSS = high polyreactivity
• QVQLVESGGGLVQAGGSLRLSCAASGSTFVAYTMGWYRQAPGKERELVAAITKRGSSTYYADSVKGRFTISRDNAKNTVYLHMNSLKPEDTAVYYCAAARSLKSYEGDYWGQGTQVTVSS = high polyreactivity
• QVQLVESGGGLVQAGGSLRLSCAASGSTFGFYAMGWYRQAPGKERELVAAIDWISGSTYYADSVKGRFTISRDNAKNTVYLQLNSLKPEDTAVYYCAAQFYYHFRYHFDWGQGTQVTVSS = low polyreactivity
• QVQLVESGGGLVQAGGSLRLSCAASGRIFDWYAMGWYRQAPGKERELVATISWSGGSTYYADSVKGRFTISRDNAKNTVYLQMNSLKPEDTAVYYCAADDYWRLYTWKFDYWGQGTQVTVSS = high polyreactivity
